Biological target: NOS1, P29475
Sequence (P29475 9-101): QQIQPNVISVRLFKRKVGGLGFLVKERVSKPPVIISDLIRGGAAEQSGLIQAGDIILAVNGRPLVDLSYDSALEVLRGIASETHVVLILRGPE
Assay: holdup assay
Design: key: below the threshold = too weak to quantify, mostly under pKd 3.1 to 4
Settings: plain residues with an end cap or a label only (N-terminal biotin on a linker: ado-ado)
OBSERVED PROPERTY: pKd

PPYRHRNTVV [ERBB4, Q15303] = 3.64
SSALYGESDL [ACTN2, P35609] = below the threshold
SARSRLSSNL [HCN2, Q9UL51] = below the threshold
TPPAAKKSRI [BAZ1A, Q9NRL2] = 3.51
